System: UGT enzymes of human liver microsomes
Construct: other: liver 062101
assay_overview: Inhibition of 2ME2 glucuronidation (MG1, MG2) in human liver microsomes
Type: biochemical
experimental_setup: liver 062101; 2ME2 50 μM; inhibitor 50 μM
measured_endpoint: residual metabolism (% of control), 2ME2 MG1

Example entries and their recorded answers appear below.
• O=C(O)Cc1ccccc1Nc1c(Cl)cccc1Cl [Diclofenac, reference compound] = 70 (1) %
• C#C[C@]1(O)CC[C@H]2[C@@H]3CCc4cc(O)ccc4[C@H]3CC[C@@]21C [17-α-Ethinylestradiol, 17-α-ethinylestradiol, reference compound] = 64 (2) %
• O=C(O[C@@H]1Cc2c(O)cc(O)cc2O[C@H]1c1cc(O)c(O)c(O)c1)c1cc(O)c(O)c(O)c1 [Gallocatechin gallate] = 21 (2) %
• O=C(c1ccc(OCCN2CCCCC2)cc1)c1c(-c2ccc(O)cc2)sc2cc(O)ccc12 [Raloxifene, raloxifene, reference compound] = 32 (2) %

Now look at this one.
Enquiry: Write down measured residual metabolism (% of control), 2ME2 MG1 (UGT enzymes of human liver microsomes) for this molecule. O=C(OC[C@H]1O[C@@H](OC(=O)c2cc(O)c(O)c(OC(=O)c3cc(O)c(O)c(O)c3)c2)[C@H](OC(=O)c2cc(O)c(O)c(OC(=O)c3cc(O)c(O)c(O)c3)c2)[C@@H](OC(=O)c2cc(O)c(O)c(OC(=O)c3cc(O)c(O)c(O)c3)c2)[C@@H]1OC(=O)c1cc(O)c(O)c(OC(=O)c2cc(O)c(O)c(O)c2)c1)c1cc(O)c(O)c(OC(=O)c2cc(O)c(O)c(O)c2)c1
Return: <LOQ
